Values were extracted from paper PMC9481563.

molecular target: SHP2 catalytic domain (219–528), C459S, wild-type (inactive) (Homo sapiens, UniProt Q06124, C459S); construct: SHP2 catalytic domains (219–528 with or without C459S) were sub-cloned into pBH4 vectors; His6 (N); assay: Fluorescence polarization titrations, inactive SHP2 catalytic domain; settings: competitive FP titration vs CF-ppIRS1 100 nM, protein fixed, unlabelled peptide varied; n = 3 technical replicates
measuredParameter: Kd (µM)
// return numeric value only (unit: µM, not printed)

(Q) Output Kd of CSCC[C@H](NC(=O)[C@H](Cc1ccc(OP(=O)(O)O)cc1)NC(=O)[C@H](CC(=O)O)NC(=O)[C@H](CO)NC(=O)[C@H](Cc1c[nH]cn1)NC(=O)[C@H](CC(C)C)NC(=O)[C@H](CC(C)C)NC(=O)[C@H](CCCNC(=N)N)NC(=O)[C@H](CO)NC(=O)[C@@H](N)CCCNC(=N)N)C(=O)N[C@@H](CC(N)=O)C(=O)N[C@@H](CCSC)C(=O)N[C@H](C(=O)N1CCC[C@H]1C(=O)N[C@@H](CCCNC(=N)N)C(=O)N[C@@H](CCCNC(=N)N)C(=O)O)[C@@H](C)OP(=O)(O)O
(A) 5.66

(Q) Output Kd of CC[C@H](C)[C@H](NC(=O)[C@H](CC(N)=O)NC(=O)[C@@H](NC(=O)[C@H](Cc1ccc(OP(=O)(O)O)cc1)NC(=O)[C@H](CCC(=O)O)NC(=O)CNC(=O)[C@@H]1CCCN1C(=O)[C@H](COP(=O)(O)O)NC(=O)[C@H](CCCCN)NC(=O)[C@@H]1CCCN1C(=O)[C@@H](N)CCC(=O)O)C(C)C)C(=O)N[C@@H](CCC(=O)O)C(=O)N[C@@H](Cc1ccccc1)C(=O)O
(A) 0.72

(Q) Output Kd of CSCC[C@H](NC(=O)[C@@H]1CCCN1C(=O)[C@H](CCSC)NC(=O)[C@H](Cc1ccc(OP(=O)(O)O)cc1)NC(=O)[C@H](CC(=O)O)NC(=O)CNC(=O)[C@H](CO)NC(=O)CNC(=O)[C@H](CCCCN)NC(=O)[C@H](CCCNC(=N)N)NC(=O)CN)C(=O)N[C@@H](COP(=O)(O)O)C(=O)N1CCC[C@H]1C(=O)N[C@@H](CCCCN)C(=O)N[C@@H](CO)C(=O)O
(A) 5.25

* * *

Target: inactive SHP2 catalytic domain Flapmut (H426F) (Homo sapiens, UniProt Q06124, C459S/H426F)
Construct: SHP2 H425F (Flapmut); 219-528 + C459S; His6 (N)
Sequence (Q06124 219-528 H426F/C459S): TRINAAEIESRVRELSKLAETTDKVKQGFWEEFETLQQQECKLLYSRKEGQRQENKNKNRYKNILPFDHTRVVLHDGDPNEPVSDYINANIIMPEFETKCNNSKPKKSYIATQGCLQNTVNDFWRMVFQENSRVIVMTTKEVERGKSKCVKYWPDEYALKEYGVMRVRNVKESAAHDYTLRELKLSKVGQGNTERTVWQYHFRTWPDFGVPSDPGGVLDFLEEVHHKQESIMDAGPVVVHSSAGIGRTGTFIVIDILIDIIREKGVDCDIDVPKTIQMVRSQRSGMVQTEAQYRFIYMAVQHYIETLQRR
Experiment: Fluorescence polarization titrations, SHP2 Flapmut
Details: competitive FP titration vs CF-ppIRS1 100 nM, protein fixed; n = 3 technical replicates
Record form. Attribute: Kd. Fill in for each entry.
// return numeric value only (unit: µM, not printed)

(Q) Output Kd of CC[C@H](C)[C@H](NC(=O)[C@H](CC(N)=O)NC(=O)[C@@H](NC(=O)[C@H](Cc1ccc(OP(=O)(O)O)cc1)NC(=O)[C@H](CCC(=O)O)NC(=O)CNC(=O)[C@@H]1CCCN1C(=O)[C@H](COP(=O)(O)O)NC(=O)[C@H](CCCCN)NC(=O)[C@@H]1CCCN1C(=O)[C@@H](N)CCC(=O)O)C(C)C)C(=O)N[C@@H](CCC(=O)O)C(=O)N[C@@H](Cc1ccccc1)C(=O)O
(A) 0.54

(Q) Output Kd of CSCC[C@H](NC(=O)[C@@H]1CCCN1C(=O)[C@H](CCSC)NC(=O)[C@H](Cc1ccc(OP(=O)(O)O)cc1)NC(=O)[C@H](CC(=O)O)NC(=O)CNC(=O)[C@H](CO)NC(=O)CNC(=O)[C@H](CCCCN)NC(=O)[C@H](CCCNC(=N)N)NC(=O)CN)C(=O)N[C@@H](COP(=O)(O)O)C(=O)N1CCC[C@H]1C(=O)N[C@@H](CCCCN)C(=O)N[C@@H](CO)C(=O)O
(A) 3.89

(Q) Output Kd of CC[C@H](C)[C@H](NC(=O)[C@H](CC(N)=O)NC(=O)[C@@H](NC(=O)[C@H](Cc1ccc(OP(=O)(O)O)cc1)NC(=O)[C@H](CCC(=O)O)NC(=O)CNC(=O)[C@@H]1CCCN1C(=O)[C@H](CO)NC(=O)[C@H](CCCCN)NC(=O)[C@@H]1CCCN1C(=O)[C@@H](N)CCC(=O)O)C(C)C)C(=O)N[C@@H](CCC(=O)O)C(=O)N[C@@H](Cc1ccccc1)C(=O)O
(A) 6.05

(Q) Output Kd of CSCC[C@H](NC(=O)[C@H](Cc1ccc(OP(=O)(O)O)cc1)NC(=O)[C@H](CC(=O)O)NC(=O)[C@H](CO)NC(=O)[C@H](Cc1c[nH]cn1)NC(=O)[C@H](CC(C)C)NC(=O)[C@H](CC(C)C)NC(=O)[C@H](CCCNC(=N)N)NC(=O)[C@H](CO)NC(=O)[C@@H](N)CCCNC(=N)N)C(=O)N[C@@H](CC(N)=O)C(=O)N[C@@H](CCSC)C(=O)N[C@H](C(=O)N1CCC[C@H]1C(=O)N[C@@H](CCCNC(=N)N)C(=O)N[C@@H](CCCNC(=N)N)C(=O)O)[C@@H](C)OP(=O)(O)O
(A) 9.96

(Q) Output Kd of CSCC[C@H](NC(=O)[C@@H]1CCCN1C(=O)[C@H](CCSC)NC(=O)[C@H](Cc1ccc(OP(=O)(O)O)cc1)NC(=O)[C@H](CC(=O)O)NC(=O)CNC(=O)[C@H](CO)NC(=O)CNC(=O)[C@H](CCCCN)NC(=O)[C@H](CCCNC(=N)N)NC(=O)CN)C(=O)N[C@@H](CO)C(=O)N1CCC[C@H]1C(=O)N[C@@H](CCCCN)C(=O)N[C@@H](CO)C(=O)O
(A) 172

(Q) Output Kd of CSCC[C@H](NC(=O)[C@H](Cc1ccc(OP(=O)(O)O)cc1)NC(=O)[C@H](CC(=O)O)NC(=O)[C@H](CO)NC(=O)[C@H](Cc1c[nH]cn1)NC(=O)[C@H](CC(C)C)NC(=O)[C@H](CC(C)C)NC(=O)[C@H](CCCNC(=N)N)NC(=O)[C@H](CO)NC(=O)[C@@H](N)CCCNC(=N)N)C(=O)N[C@@H](CC(N)=O)C(=O)N[C@@H](CCSC)C(=O)N[C@H](C(=O)N1CCC[C@H]1C(=O)N[C@@H](CCCNC(=N)N)C(=O)N[C@@H](CCCNC(=N)N)C(=O)O)[C@@H](C)O
(A) 63.7
